Reported ratio to parent values for the following variants.
B1: fused FliS−FliC^C construct (FliC^C fused to the C terminus of FliS) [not stated] / cytoplasmic domain of Salmonella enterica serovar Typhimurium FlhA (FlhA^C) [Salmonella enterica serovar Typhimurium ST313] (parent complex)
chain 1: MYTASGIKAYAQVSVESAVMSASPHQLIEMLFDGANSALVRARLFLEQGDVVAKGEALSKAINIIDNGLKAGLDQEKGGEIATNLSELYDYMIRRLLQANLRNDAQAIEEVERLLSNIAEAWKQISPKASFQESRGTASGAGGSEGGGSEGGTSGATEDSDYATEVSNMSRAQILQQAGTSVLAQANQVPQNVLSLLR
chain 2: SLGMEVGYRLIPMVDFQQDGELLGRIRSIRKKFAQDMGFLPPVVHIRDNMDLQPARYRILMKGVEIGSGDAYPGRWLAINPGTAAGTLPGEKTVDPAFGLDAIWIESALKEQAQIQGFTVVEASTVVATHLNHLIGQFSAELFGRQEAQQLLDRVSQEMPKLTEDLVPGVVTLTTLHKVLQNLLAEKVPIRDMRTILETLAEHAPLQSDPHELTAVVRVALGRAITQQWFPGNEEVQVIGLDTALERLLLQALQGGGGLEPGLADRLLAQTQEALSRQEMLGAPPVLLVNHALRPLLSRFLRRSLPQLVVLSNLELSDNRHIRMTATIGGK

- Variants of: B1
- ASSAY: ITC; parent: 1; read off a plot

Use the examples below as a reference point.
chain 2 I79A    ~10
chain 2 D95V    ~15

*Q* Find the recorded ratio to parent belonging to chain 2 V126G and report it.
*A* ~15

*Q* Similarly, chain 2 V121K ?
*A* ~12

*Q* Similarly, chain 2 L100A ?
*A* ~4
